Target: human plasmin (Homo sapiens, UniProt P00747)
Sequence (P00747 581-810 limits assumed): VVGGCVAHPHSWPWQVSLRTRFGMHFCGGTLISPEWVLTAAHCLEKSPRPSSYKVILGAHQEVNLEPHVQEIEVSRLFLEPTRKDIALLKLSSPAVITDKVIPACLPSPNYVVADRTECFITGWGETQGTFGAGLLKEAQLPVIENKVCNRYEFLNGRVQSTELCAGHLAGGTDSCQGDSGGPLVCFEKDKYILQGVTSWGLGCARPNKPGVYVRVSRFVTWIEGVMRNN
Sequence (P00747 97-580 partner limits assumed): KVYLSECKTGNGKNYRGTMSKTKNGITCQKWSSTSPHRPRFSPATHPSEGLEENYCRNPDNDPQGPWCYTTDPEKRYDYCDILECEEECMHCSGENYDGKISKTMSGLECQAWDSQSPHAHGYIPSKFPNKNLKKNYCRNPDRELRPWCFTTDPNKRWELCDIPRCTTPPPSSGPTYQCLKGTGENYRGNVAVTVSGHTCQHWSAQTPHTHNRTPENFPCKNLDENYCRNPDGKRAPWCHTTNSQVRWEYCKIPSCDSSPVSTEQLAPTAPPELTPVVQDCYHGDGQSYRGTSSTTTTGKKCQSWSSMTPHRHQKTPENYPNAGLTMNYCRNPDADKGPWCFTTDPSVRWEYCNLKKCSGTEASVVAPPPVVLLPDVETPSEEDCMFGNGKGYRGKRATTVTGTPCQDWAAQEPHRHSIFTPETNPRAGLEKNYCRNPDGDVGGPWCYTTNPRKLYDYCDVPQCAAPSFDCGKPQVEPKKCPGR
Assay: biochemical
Settings: Table 4, comparative compounds of Table 3; S-2251 substrate, pH 7.4, 37° C.; read-out: Plasmin S-2251 (I50)
pIC50: −log10 of the molar value.
RECORDED_ENDPOINT: pIC50

Solved cases below.
1. CC(=O)NC(Cc1ccc([N+](=O)[O-])cc1)C(=O)Nc1ccc([N+](=O)[O-])cc1 (stereo not drawn) [Table 3 Compound No. 4, reference compound] | < 4.00
2. NCc1ccc(C(=O)NC(Cc2ccccc2)C(=O)N2CCCCC2)cc1 (stereo not drawn) [Table 3 Compound No. 3, reference compound] | < 3.00

Now for the molecule whose pIC50 we want.
Quick check: pIC50 on human plasmin (Homo sapiens, UniProt P00747), item CC(=O)NC(Cc1ccc(OCc2ccccc2)cc1)C(=O)N(C)C (stereo not drawn) [Table 3 Compound No. 5, reference compound] ?
< 3.70
